# Test system: COLO 205
# protocolSummary: Cytotoxicity against human COLO205 cells after 72 hrs by MTT assay
# Assay type: functional, cell-based
# conditionParameters: COLO 205, 72 h
I'd appreciate it if you could supply pIC50 values for the items below.
One number for each entry, as −log10 of the molar value.

Reference set, count: 3
molecule	measuredProperty	experimentalValue
CC(C)=CCCC(C)(O)[C@H]1CC[C@]2(C)[C@@H]1[C@H](O)C[C@@H]1[C@@]3(C)CC[C@H](O)C(C)(C)[C@@H]3CC[C@]12C (single isomer, unassigned)	pIC50	4.31
CC(C)[C@]12CC[C@](C)(O1)[C@H]1CC[C@]3(C)[C@@H]1[C@@H](C[C@@H]1[C@@]4(C)CC[C@H](O)C(C)(C)[C@@H]4CC[C@]13C)O2	pIC50	4.15
COC(C)(C)CCC[C@@](C)(O)[C@H]1CC[C@]2(C)[C@@H]1[C@H](O)C[C@@H]1[C@@]3(C)CC[C@H](O)C(C)(C)[C@@H]3CC[C@]12C	pIC50	4.85

From here, focus on the item given below.
Query string: Provide one value: measured pIC50 of CC(C)(O)CCC[C@@](C)(O)[C@H]1CC[C@]2(C)[C@@H]1[C@H](O)C[C@@H]1[C@@]3(C)CC[C@H](O)C(C)(C)[C@@H]3CC[C@]12C
Result string: 4.72

====

# System: A549
# protocolSummary: Cytotoxicity against human A549 cells after 72 hrs by MTT assay
# Type: functional, cell-based
# conditionParameters: A549, 72 h
measuredProperty: IC50 (µM)
Give bare numbers, in µM.

molecule	measuredProperty	experimentalValue
CC(C)=CCCC(C)(O)[C@H]1CC[C@]2(C)[C@@H]1[C@H](O)C[C@@H]1[C@@]3(C)CC[C@H](O)C(C)(C)[C@@H]3CC[C@]12C (single isomer, unassigned)	IC50	99.9
COC(C)(C)CCC[C@@](C)(O)[C@H]1CC[C@]2(C)[C@@H]1[C@H](O)C[C@@H]1[C@@]3(C)CC[C@H](O)C(C)(C)[C@@H]3CC[C@]12C	IC50	35.6

Query string: Write down IC50 measured for item CC(C)(O)CCC[C@@](C)(O)[C@H]1CC[C@]2(C)[C@@H]1[C@H](O)C[C@@H]1[C@@]3(C)CC[C@H](O)C(C)(C)[C@@H]3CC[C@]12C
Result string: 29.9
